target: human kinase Mps-1 (Homo sapiens); construct: N-terminally GST-tagged human full length recombinant Mps-1 kinase; GST (N); purchased Invitrogen, Karslruhe, Germany PV4071; assay: Mps-1 kinase assay (TR-FRET); assay type: biochemical; conditions: Mps-1 TR-FRET kinase assay; avg; read-out: Mps1 avg (IC50 [mol/l])
Sequence (P33981 whole entry): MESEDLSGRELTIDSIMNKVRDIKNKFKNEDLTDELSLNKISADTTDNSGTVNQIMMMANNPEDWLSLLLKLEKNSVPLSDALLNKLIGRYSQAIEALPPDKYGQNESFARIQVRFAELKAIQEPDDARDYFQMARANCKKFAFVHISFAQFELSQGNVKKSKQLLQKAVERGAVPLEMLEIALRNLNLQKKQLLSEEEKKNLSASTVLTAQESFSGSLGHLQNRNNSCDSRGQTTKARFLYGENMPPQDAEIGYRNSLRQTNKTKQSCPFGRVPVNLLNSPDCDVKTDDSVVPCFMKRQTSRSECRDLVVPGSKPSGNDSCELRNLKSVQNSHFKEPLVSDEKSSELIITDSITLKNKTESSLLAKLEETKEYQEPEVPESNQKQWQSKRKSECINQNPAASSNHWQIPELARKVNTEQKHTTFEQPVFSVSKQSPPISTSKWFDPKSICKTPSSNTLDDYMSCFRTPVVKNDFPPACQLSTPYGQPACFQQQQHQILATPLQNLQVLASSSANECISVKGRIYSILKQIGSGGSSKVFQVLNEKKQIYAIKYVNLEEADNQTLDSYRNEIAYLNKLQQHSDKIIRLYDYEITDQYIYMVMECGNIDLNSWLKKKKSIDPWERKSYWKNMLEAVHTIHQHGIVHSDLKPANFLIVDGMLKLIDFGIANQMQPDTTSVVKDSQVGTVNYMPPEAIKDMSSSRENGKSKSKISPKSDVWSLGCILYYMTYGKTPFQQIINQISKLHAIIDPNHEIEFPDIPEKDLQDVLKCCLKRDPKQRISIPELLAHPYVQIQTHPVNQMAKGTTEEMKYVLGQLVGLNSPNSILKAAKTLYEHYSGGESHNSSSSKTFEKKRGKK
metric: IC50

Some compounds with recorded IC50:
{"compound": "Cc1nsc(Nc2cnc3ccccc3n2)c1C(=O)Nc1cccc(C(=O)N[C@@H](CCC(N)=O)C(=O)O)c1 [Example 103]", "val": "13 µM"}
{"compound": "Cc1nsc(Nc2ccc(C#N)cn2)c1C(=O)Nc1ccc(Nc2ccc(F)c(F)c2)nc1 [Example 433]", "val": "> 20 µM"}

Looking up Cc1nsc(Nc2cncc(C(F)(F)F)n2)c1C(=O)Nc1ccc(OCCN)nc1 [Example 196] , I see its IC50 listed as > 20 µM

Looking up Cc1nsc(Nc2cnc(C(F)(F)F)cn2)c1C(=O)Nc1ccc(C(=O)NCCN2CCCC(F)(F)C2)cc1 [Example 153] , I see its IC50 listed as > 20 µM
